All values here come from patent US11939314B2.

biological target: c-Kit(V654A) (Homo sapiens, UniProt P10721, V654A); construct: amino acids 544-end containing the V654A mutation; GST (N); experiment: c-Kit(V654A) assay; conditions: recombinant human c-Kit aa 544-end, 200 μM ATP, 1.4E-06 means 1.4×10^−6, read-out: Inhibition (IC50) of c-KIT (V654A)
Sequence (P10721 544-976 V654A): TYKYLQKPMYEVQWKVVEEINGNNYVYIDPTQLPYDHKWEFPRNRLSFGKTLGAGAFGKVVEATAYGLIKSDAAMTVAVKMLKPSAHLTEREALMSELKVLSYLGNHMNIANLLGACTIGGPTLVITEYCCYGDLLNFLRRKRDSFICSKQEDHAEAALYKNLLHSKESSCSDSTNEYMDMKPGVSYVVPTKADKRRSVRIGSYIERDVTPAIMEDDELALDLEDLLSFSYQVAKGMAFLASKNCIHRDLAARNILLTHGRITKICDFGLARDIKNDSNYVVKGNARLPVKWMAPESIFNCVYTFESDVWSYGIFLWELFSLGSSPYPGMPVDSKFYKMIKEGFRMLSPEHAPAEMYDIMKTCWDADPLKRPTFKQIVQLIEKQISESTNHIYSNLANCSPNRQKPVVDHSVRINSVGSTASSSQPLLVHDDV
readout.name: pIC50
Please report pIC50 as the negative decimal logarithm of the molar concentration, giving only the number.

| molecule | pIC50 |
| --- | --- |
| O=C(c1ccc(-n2cc(-c3cc4ccncc4[nH]c3=O)nn2)cc1)N1CCOCC1 | 6.82 |
| O=C(c1ccc(-n2cc(-c3cc4cc(F)ccc4[nH]c3=O)nn2)cc1)N1C[C@H](O)C[C@H]1CO | 7.04 |

query: Could you share what pIC50 was measured for "O=C(NC1CCNCC1)c1ccc(-n2cc(-c3cc4cccnc4[nH]c3=O)nn2)cc1" , tested on c-Kit(V654A) (Homo sapiens, UniProt P10721, V654A)?
result: 7.04

query: Give c-Kit(V654A) (Homo sapiens, UniProt P10721, V654A) pIC50 for "O=C(c1ccc(-n2cc(-c3cc4cc(F)ccc4[nH]c3=O)nn2)cc1)N1CCNC[C@H]1CO"
result: 6.70

query: # value lookup — system c-Kit(V654A) (Homo sapiens, UniProt P10721, V654A), readout pIC50, item "COC[C@H]1CCN(C(=O)c2ccc(-n3cc(-c4cc5cc(F)c(F)cc5[nH]c4=O)nn3)cc2)C1"
result: 7.01

query: Give the reported pIC50 for "O=C(c1ccc(-n2cc(-c3cc4cc(F)ccc4[nH]c3=O)nn2)cc1)N1C[C@H](O)CO1" (system: c-Kit(V654A) (Homo sapiens, UniProt P10721, V654A)).
result: 7.27

query: Param readout= pIC50; system= c-Kit(V654A) (Homo sapiens, UniProt P10721, V654A); entry= "CO[C@@H]1CN[C@H](C(=O)N(C)c2ccc(-n3cc(-c4cc5cc(F)ccc5[nH]c4=O)nn3)cc2)C1" ; returns value.
result: 7.59
